- Test system: IYD (gene 389434)
- assayProtocol: CCTE_GLTED_hIYD: CCTE's human Iodotyrosine Deiodinase (xIYD) Inhibition Assay, Great Lakes Toxicology and Ecology Division (GLTED) Lab (AID 2284317);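 also: cell-free human IYD enzyme made in baculovirus insect cells; iodide freed from monoiodotyrosine measured by cerium arsenite color change at 420 nm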
The source made the active and inactive calls. The calls were made as follows: active = hit-call score of the fitted dose curve at least 0.9, where 1 is the maximum; inconclusive = response in the unintended direction; inactive = score below 0.9.
quantityKind: AC50

CCN(Cc1cccc(S(=O)(=O)O)c1)c1ccc(C(=C2C=CC(=[N+](CC)Cc3cccc(S(=O)(=O)O)c3)C=C2)c2ccc(O)cc2S(=O)(=O)[O-])cc1; 66.1 µM (active)
O=C(Cl)C(F)(F)C(F)(F)C(F)(F)C(F)(F)C(F)(F)C(F)(F)C(F)(F)C(F)(F)F; 139 µM (active)
CCCCC(CC)COP(=O)(O)OCC(CC)CCCC (stereo not given); 100 µM (active)
O=S(=O)(O)C(F)(F)C(F)(F)C(F)(F)C(F)(F)C(F)(F)C(F)(F)C(F)(F)F; 100 µM (active)

Please examine the following record next.
## Input Which AC50 is listed for O=C(O)C(F)(F)C(F)(F)C(F)(F)C(F)(F)C(F)(F)C(F)(F)C(F)(F)C(F)(F)C(F)(F)C(F)F ?
## Output 73.5 µM (active)

---

- Read-out: C-C motif chemokine 2 (Homo sapiens) (UniProt P13500)
- assayProtocol: BSK_KF3CT_MCP1: BioMAP Diversity Plus: KF3CT Assay for Monocyte Chemoattractant Protein 1 (MCP1/CCL2) Biomarker Activity (AID 2283073)
- assaySetup: primary human keratinocytes with fibroblasts; actives raise or lower the signal
- Protocol: BSK_KF3CT is a cell-based, multiplexed-readout assay that uses keratinocytes and foreskin fibroblasts, a human skin primary cell co-culture, with measurements taken at 24 hours after chemical dosing in a 96-well plate.BSK_KF3CT_MCP1 is an assay component measured in the BSK_KF3CT assay. It measures MCP-1 antibody related to regulation of gene expression using ELISA technology.Data from the assay component BSK_KF3CT_MCP1 was analyzed into 1 assay endpoint. […]
Calls of active or inactive are those of the source. How the source made its calls: active means hit-call score of the fitted dose curve at least 0.9, where 1 is the maximum; inactive means score below 0.9.
quantityKind: outcome

Here are 5 molecules together with their reported answers.
CCCCNc1ccccc1; inactive
O=C(O)C(F)(F)C(F)(F)OC(F)(F)F; inactive
O=C(CC(=O)C(F)(F)C(F)(F)F)C(F)(F)F; inactive
CC(C)(C)C(=O)CC(=O)C(F)(F)C(F)(F)C(F)(F)F; inactive
C=C(C)C(=O)OCCC(F)(F)C(F)(F)C(F)(F)C(F)(F)C(F)(C(F)(F)F)C(F)(F)F; inactive

## Input Which outcome is listed for C=CC(F)(F)C(F)(F)C(F)(F)C(F)(F)C(F)(F)C(F)(F)C(F)(F)C(F)(F)F ?
## Output inactive

## Input Which outcome is listed for CC(=O)Nc1ccc(N=Nc2cc(C)ccc2O)cc1 ?
## Output inactive

## Input Which outcome is listed for O=S(=O)(O)C(F)(F)C(F)(F)C(F)(F)C(F)(F)C(F)(F)C(F)(F)C(F)(F)F ?
## Output inactive

## Input Which outcome is listed for COC(=O)CCC(F)(F)C(F)(F)C(F)(F)C(F)(F)F ?
## Output inactive

## Input Which outcome is listed for O=P(O)(O)OCCC(F)(F)C(F)(F)C(F)(F)C(F)(F)C(F)(F)C(F)(F)F ?
## Output inactive

## Input Which outcome is listed for OCC(F)(F)C(F)(F)C(F)(F)C(F)(F)C(F)(F)C(F)F ?
## Output inactive

## Input Which outcome is listed for C#C[C@]1(O)CC[C@H]2[C@@H]3CCc4cc(OC)ccc4[C@H]3CC[C@@]21C ?
## Output inactive

## Input Which outcome is listed for C=C(C)C(=O)OCC(F)(F)C(F)(F)C(F)(F)F ?
## Output inactive

## Input Which outcome is listed for CC(CCl)OP(=O)(OC(C)CCl)OC(C)CCl (stereo not drawn) ?
## Output inactive

## Input Which outcome is listed for CS(C)(=O)=O ?
## Output inactive

## Input Which outcome is listed for O=C(O)C(F)(OC(F)(F)C(F)(OC(F)(F)C(F)(F)C(F)(F)F)C(F)(F)F)C(F)(F)F (stereo not drawn) ?
## Output inactive

## Input Which outcome is listed for FC(F)(F)C(F)(F)C(F)(F)C(F)(F)C(F)(F)C(F)(F)CC1CO1 (stereo not drawn) ?
## Output inactive

## Input Which outcome is listed for FC(F)(F)C(F)(F)C(F)(F)C(F)(F)C(F)(F)C(F)(F)C(F)(F)I ?
## Output inactive

## Input Which outcome is listed for Oc1ccc(Nc2ccccc2)cc1 ?
## Output inactive

---

- Read-out: CD38, CD38 (gene 952)
- assayProtocol: BSK_SAg_CD38: BioMAP Diversity Plus: SAg Assay for CD38 Biomarker Activity (AID 2283087)
- assaySetup: primary human HUVEC with PBMC; actives raise or lower the signal
Calls of active or inactive are those of the source. The calls were made as follows: active = hit-call score of the fitted dose curve at least 0.9, where 1 is the maximum; inactive = score below 0.9.
Log the outcome using a class from True (active), False (inactive)

C=C(C)C(=O)OCC(F)(F)C(F)(F)C(F)(F)F; False

## Input State the result this test recorded for O=C(O)C(F)(F)C(F)(F)C(F)F .
## Output False

## Input State the result this test recorded for OCC(F)(F)C(F)(F)C(F)(F)C(F)(F)C(F)(F)C(F)F .
## Output False

## Input State the result this test recorded for Oc1ccc(Nc2ccccc2)cc1 .
## Output True

## Input State the result this test recorded for O=C(O)C=C(C(F)(F)F)C(F)(F)F .
## Output False

## Input State the result this test recorded for O=S(=O)(O)C(F)(F)C(F)(F)C(F)(F)C(F)(F)C(F)(F)C(F)(F)C(F)(F)F .
## Output False

## Input State the result this test recorded for O=S(=O)(OCCOC(F)(F)F)C(F)(F)F .
## Output False

## Input State the result this test recorded for FC(F)(F)C(F)(F)C(F)(F)C(F)(F)C(F)(F)C(F)(F)CC1CO1 (stereo unspecified) .
## Output False

## Input State the result this test recorded for FC(F)(F)C(F)(F)C(F)(F)C(F)(F)C(F)(F)C(F)(F)C(F)(F)C(F)(F)F .
## Output False

## Input State the result this test recorded for CCCCCCCOC(=O)c1ccccc1C(=O)OCCCCCCC .
## Output False

## Input State the result this test recorded for FC(F)(F)C(F)(F)C(F)(F)C(F)(F)C(F)(F)C(F)(F)C(F)(F)Br .
## Output False

---

- assayProtocol: TOX21_p53_BLA_p2_viability: Viability Assessment in the Tox21 HCT-116 p53 Agonism Beta-lactamase Assay, Phase 2 (AID 2283591);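 also: compound exposure lasted 16 h at 37 °C; actives lower the ATP signal meaning cytotoxicity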
Inconclusive results are not listed. The source made the active and inactive calls. How the source made its calls: active means hit-call score of the fitted dose curve at least 0.9, where 1 is the maximum; inconclusive means response in the unintended direction; inactive means score below 0.9.
Log the outcome using a class from class 1 = active, class 0 = inactive

Solved cases (5 shown):
CCCCNc1ccccc1; class 0
Nc1cc(Cl)c(N)c(Cl)c1; class 0
Cc1ccc(S(=O)(=O)NCl)cc1; class 0
CCCCCCOC(=O)c1ccccc1; class 0
O=S(=O)(O)c1ccc2ccccc2c1; class 0

## Input State the result this test recorded for CC(Cc1ccc(O)c(O)c1)C(C)Cc1ccc(O)c(O)c1 (stereo unspecified) .
## Output class 1

## Input State the result this test recorded for Nc1ccc([N+](=O)[O-])cc1O .
## Output class 0

## Input State the result this test recorded for CCc1ccc(C(c2ccc(CC)cc2)C(Cl)Cl)cc1 .
## Output class 0

## Input State the result this test recorded for CCCCOc1ccc(N)cc1 .
## Output class 0

## Input State the result this test recorded for CCN(CC)c1ccc2c(C)cc(=O)oc2c1 .
## Output class 0

## Input State the result this test recorded for CNC(=S)NC .
## Output class 0

---

- assayProtocol: BSK_SAg_SRB: Viability Assessment in the BioMAP Diversity Plus: SAg Assay (AID 2283096);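 also: cells read one day after compound addition; hits may be either gain or loss of signal compared with DMSO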
- assaySetup: primary human HUVEC with PBMC
Calls of active or inactive are those of the source. Rule for the calls: active = hit-call score of the fitted dose curve at least 0.9, where 1 is the maximum; inactive = score below 0.9.
Log the outcome using a class from active, inactive

Solved cases (3 shown):
OCC(F)(F)C(F)(F)C(F)(F)F; inactive
OCC(F)(F)C(F)(F)C(F)(F)C(F)F; inactive
FC(F)(F)C(F)(F)C(F)(F)C(F)(F)C(F)(F)C(F)(F)C(F)(F)I; inactive

## Input State the result this test recorded for FC(F)(F)C(F)(F)C(F)(F)C(F)(F)C(F)(F)C(F)(F)CCS .
## Output inactive

## Input State the result this test recorded for OCCCC(F)(F)C(F)(F)C(F)(F)F .
## Output inactive

## Input State the result this test recorded for O=S(=O)(O)C(F)(F)C(F)(F)C(F)(F)C(F)(F)C(F)(F)C(F)(F)C(F)(F)F .
## Output inactive

## Input State the result this test recorded for C=CC(F)(F)C(F)(F)C(F)(F)C(F)(F)C(F)(F)C(F)(F)C(F)(F)C(F)(F)C=C .
## Output inactive

## Input State the result this test recorded for O[Si](c1ccccc1)(c1ccccc1)c1ccccc1 .
## Output active

## Input State the result this test recorded for FC(F)(F)C(F)(F)C(F)(F)C(F)(F)C(F)(F)CCI .
## Output inactive

## Input State the result this test recorded for CC(=O)Nc1ccc(N=Nc2cc(C)ccc2O)cc1 .
## Output inactive

## Input State the result this test recorded for O=C(O)C(F)(F)C(F)(F)C(F)(F)F .
## Output inactive

## Input State the result this test recorded for O=C(O)C(F)(F)C(F)(F)C(F)(F)C(F)(F)C(F)(F)C(F)(F)C(F)(F)C(F)(F)C(F)(F)C(F)(F)C(F)(F)C(F)(F)C(F)(F)F .
## Output inactive

## Input State the result this test recorded for CCCCOCCOCCOC(=O)CCCCC(=O)OCCOCCOCCCC .
## Output inactive

## Input State the result this test recorded for O=C(O)C(F)(OC(F)(F)C(F)(OC(F)(F)C(F)(F)C(F)(F)F)C(F)(F)F)C(F)(F)F (centres undefined) .
## Output inactive

## Input State the result this test recorded for CCCCCCCOC(=O)c1ccccc1C(=O)OCCCCCCC .
## Output inactive

## Input State the result this test recorded for OCC(F)(F)C(F)(F)C(F)(F)C(F)(F)C(F)(F)C(F)F .
## Output inactive
